# EXPERIMENTAL_SYSTEM: β5c of hu c-20S (Homo sapiens (Human), UniProt P20618+P28074)
# EXPERIMENT_SUMMARY: IC50 determination against β5c of human constitutive proteasome (suc-LLVY-AMC hydrolysis)
# Format: biochemical
# ASSAY_CONTEXT: 0.2 nM c-20S, 25 μM suc-LLVY-AMC
MEASURED_METRIC: IC50 (µM)

Task item: Using the record for CC(=O)N[C@H]1Cc2cccc(c2)OC/C=C/C[C@@H](C(=O)NCC(F)(F)F)NC(=O)[C@H](CCc2ccccc2)NC1=O [Compound 3-01] , report its IC50.
Reply: 0.78

Task item: Given COCCC(=O)N[C@H]1Cc2cccc(c2)Oc2cccc(c2)C[C@@H](C(=O)NCCC(F)(F)F)NC(=O)[C@H](CCc2ccccc2)NC1=O [Compound 1-45] , state its recorded IC50.
Reply: 7.7

Task item: Consider the molecule Cc1nn(C)cc1CNC(=O)[C@@H]1Cc2cccc(c2)Oc2cccc(c2)C[C@H](NS(C)(=O)=O)C(=O)N[C@@H](CCc2ccccc2)C(=O)N1 [Compound 1-38] and give its measured IC50.
Reply: 4.29

Task item: Would you mind telling me what IC50 value was observed for O=C(NCC(F)(F)F)[C@@H]1CCCCOc2cccc(c2)C[C@H](N2CCCS2(=O)=O)C(=O)N[C@@H](CCN2CCOCC2)C(=O)N1 [Compound 3-19] ?
Reply: 45

A: CCCN(CCC)[C@H]1Cc2cccc(c2)Oc2cccc(c2)C[C@@H](C(=O)NCc2ccccc2)NC(=O)[C@H](CCc2ccccc2)NC1=O [Compound 1-09]
B: O=C1CCc2cccc(c2)OCCCC[C@@H](C(=O)NCc2ccccc2F)NC(=O)[C@H](CCN2CCOCC2)N1 [Compound 3-26]
C: O=C(NCc1ccccc1)[C@@H]1Cc2cccc(c2)Oc2cccc(c2)C[C@H](N2CCCC2)C(=O)N[C@@H](CCc2ccccc2)C(=O)N1 [Compound 1-17]
D: CCC(=O)N[C@H]1Cc2cccc(c2)Oc2cccc(c2)C[C@@H](C(=O)NCc2ccccn2)NC(=O)[C@H](CCc2ccccc2)NC1=O [Compound 1-48]
E: C[C@@H]1Cc2cccc(c2)OCCCC[C@@H](C(=O)NC2CCCC2)NC(=O)[C@H](CCN2CCOCC2)NC1=O (single isomer, unassigned) [Compound 3-38]
Task item: Which order do these items take when sorted by rising IC50? List them. Put the labels in the requested order and write them down.
Reply: A, B, D, E, C

P: CS(=O)(=O)N[C@H]1Cc2cccc(c2)Oc2cccc(c2)C[C@@H](C(N)=O)NC(=O)[C@H](CCc2ccccc2)NC1=O [Compound 1-35]
Q: O=C(N[C@H]1Cc2cccc(c2)Oc2cccc(c2)C[C@@H](C(=O)NC2CCCC2)NC(=O)[C@H](CCc2ccccc2)NC1=O)c1ccccc1 [Compound 1-23]
R: O=C(CO)N[C@H]1Cc2cccc(c2)Oc2cccc(c2)C[C@@H](C(=O)NCc2ccccc2)NC(=O)[C@H](CCc2ccccc2)NC1=O [Compound 1-11]
S: CC(=O)N[C@H]1Cc2cccc(c2)OCCCC[C@@H](C(=O)NCC(F)(F)F)NC(=O)[C@H](CCc2ccccc2)NC1=O [Compound 3-02]
Task item: Place the items in sequence of falling IC50. Response field: labels, in requested order.
Reply: Q, P, R, S

1: O=C(N[C@H]1Cc2cccc(c2)Oc2cccc(c2)C[C@@H](C(=O)NCCC(F)(F)F)NC(=O)[C@H](CCc2ccccc2)NC1=O)c1ccccc1 [Compound 1-41]
2: C[C@H]1Cc2cccc(c2)OCCCC[C@@H](C(=O)NC2CCCC2)NC(=O)[C@H](CCN2CCOCC2)NC1=O (single isomer, unassigned) [Compound 3-37]
Task item: Return label of the item with the larger IC50. Candidates: 1 , 2 . Output the label that corresponds to your choice.
Reply: 2

I: O=C1CCc2cccc(c2)OCCCC[C@@H](C(=O)NCc2ccccc2F)NC(=O)[C@H](CCc2ccc(F)cc2)N1 [Compound 3-41]
II: CN(C)CCC(=O)N[C@H]1Cc2cccc(c2)Oc2cccc(c2)C[C@@H](C(=O)NCC2CCCCN2C)NC(=O)[C@H](CCc2ccccc2)NC1=O (stereo partly drawn) [Compound 1-39]
III: CCNC(=O)[C@@H]1Cc2cccc(c2)Oc2cccc(c2)C[C@H](N(CC)CC)C(=O)N[C@@H](CCc2ccccc2)C(=O)N1 [Compound 1-27]
Task item: Put the molecules in ascending order of IC50. Would you mind listing the labels in the order asked for?
Reply: III, II, I
(III: 1.14 µM, II: 4.57 µM, I: 56 µM)

a: COC(=O)C1COCCOc2cccc(c2)CCC(=O)NC(CCc2ccccc2)C(=O)N1 (stereo not drawn) [Compound 3-05]
b: CCCN(CCC)[C@H]1Cc2cccc(c2)Oc2cccc(c2)C[C@@H](C(=O)NC2CCCC2)NC(=O)[C@H](CCc2ccccc2)NC1=O [Compound 1-21]
Task item: Compare the recorded IC50 of a and b ; state which is larger. I would appreciate it if you answered with the label of your choice.
Reply: a

###

# EXPERIMENTAL_SYSTEM: β5i of hu i-20S (Homo sapiens (Human), UniProt P20618+P28062)
# EXPERIMENT_SUMMARY: IC50 determination against β5i of human immunoproteasome (Ac-ANW-AMC hydrolysis);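 note: enzyme activity taken as the initial reaction velocity per well, with SDS added to activate the proteasome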
# Assay type: biochemical
# ASSAY_CONTEXT: β5i, 0.4 nM i-20S, 15 μM Ac-ANW-AMC
MEASURED_METRIC: IC50 (µM)

Some solved cases for reference:
Task item: Given the compound CN(C)[C@H]1Cc2cccc(c2)Oc2cccc(c2)C[C@@H](C(=O)NCC(F)(F)F)NC(=O)[C@H](CCc2ccccc2)NC1=O [Compound 1-57] , what is its reported IC50?
Reply: 18.7

Task item: Given the entry O=C1CCc2cccc(c2)OCCCC[C@@H](C(=O)NCc2ccccc2F)NC(=O)[C@H](CC(=O)N2CCCC2C2CC2)N1 (single isomer, unassigned) [Compound 3-46-B] , report its measured IC50.
Reply: 0.312

A: O=C(NCc1ncco1)[C@@H]1CCCCOc2cccc(c2)C[C@H](N2CCCC2=O)C(=O)N[C@@H](CCc2ccccc2)C(=O)N1 [Compound 3-16]
B: O=C1CCC/C=C\CCCCC[C@@H](C(=O)NCc2cccc3ccccc23)NC(=O)[C@H](CC(=O)N2CCCC2)N1 [Compound 4-05]
C: O=C(NCc1ccccc1)[C@@H]1Cc2cccc(c2)Oc2cccc(c2)C[C@H](N2CCCC2)C(=O)N[C@@H](CCc2ccccc2)C(=O)N1 [Compound 1-17]
D: O=C1CCc2cccc(c2)Oc2ccc(cc2)CC(C(=O)NCc2cccc3ccccc23)NC(=O)C(CC(=O)N2CCCC2)N1 (stereo not shown) [Compound 2-03-B]
E: O=C1CCCCCCCCCC[C@@H](C(=O)NCc2ccccc2F)NC(=O)[C@H](CC(=O)N2CCCC2C2CC2)N1 (stereo partly shown) [Compound 4-13]
Task item: Arrange items by their IC50 values in increasing order. Answer by listing the labels in the requested order.
Reply: E, D, B, C, A
(E: 0.018 µM, D: 0.96 µM, B: 4.36 µM, C: 6.6 µM, A: 82 µM)

###

# EXPERIMENTAL_SYSTEM: β5c of hu c-20S (Homo sapiens (Human), UniProt P20618+P28074)
# EXPERIMENT_SUMMARY: IC50 determination against β5c of human constitutive proteasome (suc-LLVY-AMC hydrolysis)
# Type: biochemical
# ASSAY_CONTEXT: 0.2 nM c-20S, 25 μM suc-LLVY-AMC
MEASURED_METRIC: IC50 (µM)

I: COC1(CNC(=O)[C@@H]2Cc3cccc(c3)Oc3cccc(c3)CCC(=O)N[C@@H](CCN3CCOCC3)C(=O)N2)CC1
II: CC1CCCN1[C@H]1Cc2cccc(c2)Oc2cccc(c2)C[C@@H](C(=O)NCc2ccccc2)NC(=O)[C@H](CCc2ccccc2)NC1=O (stereo partly shown)
III: CCC(=O)N[C@H]1Cc2cccc(c2)Oc2cccc(c2)C[C@@H](C(=O)NCC(C)C)NC(=O)[C@H](CCc2ccccc2)NC1=O
Task item: Rank descending by IC50: all 3 compounds from above. List the labels according to the requested ordering.
Reply: I, III, II

###

# EXPERIMENTAL_SYSTEM: β5c of hu c-20S (Homo sapiens (Human), UniProt P20618+P28074)
# EXPERIMENT_SUMMARY: IC50 determination against β5c of human constitutive proteasome (suc-LLVY-AMC hydrolysis);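 note: IC50 obtained by fitting initial reaction velocities to a dose-dependent inhibition model, with SDS present as proteasome activator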
# Type: biochemical
# ASSAY_CONTEXT: 0.2 nM c-20S, 25 μM suc-LLVY-AMC
MEASURED_METRIC: IC50 (µM)

Task item: I have this compound here, Cc1ccc(CNC(=O)[C@@H]2Cc3cccc(c3)Oc3cccc(c3)C[C@H](NC(=O)OC(C)(C)C)C(=O)N[C@@H](CCc3ccccc3)C(=O)N2)cc1 [Compound 1-68] , and I need its recorded IC50.
Reply: 17.9

A: CN1CCC(C(=O)N[C@H]2Cc3cccc(c3)Oc3cccc(c3)C[C@@H](C(=O)NCc3cnn(C)c3)NC(=O)[C@H](CCc3ccccc3)NC2=O)CC1 [Compound 1-03]
B: CCN(CC)[C@H]1Cc2cccc(c2)Oc2cccc(c2)C[C@@H](C(=O)NCC(C)C)NC(=O)[C@H](CCc2ccccc2)NC1=O [Compound 1-29]
Task item: Hi, I'm comparing two records. Which one has the lower IC50, A or B ? Output the label that corresponds to your choice.
Reply: A
